subject-of-test: Brd3 (Homo sapiens)
protocol-text: Time-dependent BET degradation, immunoblot
Type: cell-based
assay-setup: HEK293, Brd3, 1 μM, 0-24 hrs
As shown below, each of these compounds has a reported Dmax at 1 µM value.
Numbers only here, please. The scale is %.

>  <compound>
Cc1sc2c(c1C)C(c1ccc(Cl)cc1)=N[C@@H](CC(=O)NCCCCNC(=O)c1cc(S)c3ncc(C(=O)NCCc4nccs4)cc3c1)c1nnc(C)n1-2 [Example 11JQ7]

>  <val>
95

$$$$
>  <compound>
Cc1sc2c(c1C)C(c1ccc(Cl)cc1)=N[C@@H](CC(=O)NCCOCCNC(=O)c1cc(SC(=O)c3ccccc3)c3ncc(C(=O)NCCc4nccs4)cc3c1)c1nnc(C)n1-2 [Example 11JQ15]

>  <val>
70

$$$$
>  <compound>
Cc1sc2c(c1C)C(c1ccc(Cl)cc1)=N[C@@H](CC(=O)NCCCCNC(=O)c1cc(SC(=O)c3ccccc3)c3ncc(C(=O)NCCc4nccs4)cc3c1)c1nnc(C)n1-2 [Example 11JQ16]

>  <val>
95

$$$$

Next up:
Query: Dmax at 1 µM; subject: Cc1sc2c(c1C)C(c1ccc(Cl)cc1)=N[C@@H](CC(=O)NCCOCCNC(=O)c1cc(S)c3ncc(C(=O)NCCc4nccs4)cc3c1)c1nnc(C)n1-2 [Example 11JQ1]
90

----------
subject-of-test: Brd2 (Homo sapiens, UniProt P25440)
Sequence (P25440 whole entry): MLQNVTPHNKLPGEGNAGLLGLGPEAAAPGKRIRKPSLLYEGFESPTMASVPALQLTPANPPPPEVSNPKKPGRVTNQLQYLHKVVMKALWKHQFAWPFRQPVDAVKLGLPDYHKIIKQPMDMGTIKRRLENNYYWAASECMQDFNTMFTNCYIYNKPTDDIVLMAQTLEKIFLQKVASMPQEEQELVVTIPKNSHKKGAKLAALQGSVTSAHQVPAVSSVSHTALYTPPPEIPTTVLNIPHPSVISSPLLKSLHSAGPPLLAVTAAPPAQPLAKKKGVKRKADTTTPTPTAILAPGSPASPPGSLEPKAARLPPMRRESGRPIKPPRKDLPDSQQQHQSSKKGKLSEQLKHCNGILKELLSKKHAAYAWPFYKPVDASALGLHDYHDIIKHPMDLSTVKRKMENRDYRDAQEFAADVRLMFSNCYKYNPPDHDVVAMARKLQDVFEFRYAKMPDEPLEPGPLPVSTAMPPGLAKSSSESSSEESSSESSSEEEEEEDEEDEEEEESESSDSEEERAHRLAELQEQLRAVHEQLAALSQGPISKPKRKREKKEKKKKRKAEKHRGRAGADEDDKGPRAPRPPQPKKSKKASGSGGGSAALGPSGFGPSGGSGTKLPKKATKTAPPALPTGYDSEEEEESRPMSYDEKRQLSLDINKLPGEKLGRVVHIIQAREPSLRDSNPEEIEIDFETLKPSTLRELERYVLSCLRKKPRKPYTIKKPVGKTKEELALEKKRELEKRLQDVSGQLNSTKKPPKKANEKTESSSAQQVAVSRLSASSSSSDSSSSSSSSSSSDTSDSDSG
protocol-text: Time-dependent BET degradation, immunoblot
Format: cell-based
assay-setup: HEK293, Brd2, 1 μM; time to reach 50% of the Dmax
metric-name: T1/2 (h)
Numbers only here, please. The scale is h.

>  <compound-string>
Cc1sc2c(c1C)C(c1ccc(Cl)cc1)=N[C@@H](CC(=O)NCCOCCNC(=O)c1cc(S)c3ncc(C(=O)NCCc4nccs4)cc3c1)c1nnc(C)n1-2

>  <T1/2, h>
1.0

$$$$
>  <compound-string>
Cc1sc2c(c1C)C(c1ccc(Cl)cc1)=N[C@@H](CC(=O)NCCCCNC(=O)c1cc(S)c3ncc(C(=O)NCCc4nccs4)cc3c1)c1nnc(C)n1-2

>  <T1/2, h>
1.8

$$$$
>  <compound-string>
Cc1sc2c(c1C)C(c1ccc(Cl)cc1)=N[C@@H](CC(=O)NCCCCNC(=O)c1cc(SC(=O)c3ccccc3)c3ncc(C(=O)NCCc4nccs4)cc3c1)c1nnc(C)n1-2

>  <T1/2, h>
1.7

$$$$

Next up:
Query: T1/2; subject: `Cc1sc2c(c1C)C(c1ccc(Cl)cc1)=N[C@@H](CC(=O)NCCOCCNC(=O)c1cc(SC(=O)c3ccccc3)c3ncc(C(=O)NCCc4nccs4)cc3c1)c1nnc(C)n1-2`
1.1

----------
subject-of-test: Brd3 (Homo sapiens, UniProt Q15059)
Sequence (Q15059 whole entry): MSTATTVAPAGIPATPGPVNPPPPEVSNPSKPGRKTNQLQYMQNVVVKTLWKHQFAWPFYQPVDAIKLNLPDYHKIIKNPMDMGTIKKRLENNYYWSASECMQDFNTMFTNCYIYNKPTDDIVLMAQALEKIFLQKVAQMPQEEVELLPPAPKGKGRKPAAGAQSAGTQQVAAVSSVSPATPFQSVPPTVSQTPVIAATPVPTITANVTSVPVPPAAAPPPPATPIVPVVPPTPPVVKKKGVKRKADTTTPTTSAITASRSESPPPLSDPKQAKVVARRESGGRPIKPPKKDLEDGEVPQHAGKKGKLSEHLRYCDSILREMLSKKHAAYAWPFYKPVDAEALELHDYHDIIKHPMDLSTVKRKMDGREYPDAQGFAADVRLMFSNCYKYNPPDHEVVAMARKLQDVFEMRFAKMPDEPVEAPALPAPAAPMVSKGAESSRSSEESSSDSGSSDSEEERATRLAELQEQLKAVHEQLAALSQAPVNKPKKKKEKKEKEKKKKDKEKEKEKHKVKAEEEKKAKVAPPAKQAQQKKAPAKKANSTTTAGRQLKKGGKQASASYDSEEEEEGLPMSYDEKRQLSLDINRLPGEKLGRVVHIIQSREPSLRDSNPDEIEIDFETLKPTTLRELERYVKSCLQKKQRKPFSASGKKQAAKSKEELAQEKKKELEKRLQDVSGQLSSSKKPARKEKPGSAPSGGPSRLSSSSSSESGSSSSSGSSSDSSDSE
protocol-text: Concentration-dependent BET degradation, immunoblot
Assay type: cell-based
Design: endogenous in cells; host or cells: HEK293 (CRL-1573), HeLa (CCL-2)
assay-setup: HeLa, Brd3, 4 h, 1 nM-10 μM
As shown below, each of these compounds has a reported DC50 value.

>  <compound-string>
Cc1sc2c(c1C)C(c1ccc(Cl)cc1)=N[C@@H](CC(=O)NCCCCNC(=O)c1cc(SC(=O)c3ccccc3)c3ncc(C(=O)NCCc4nccs4)cc3c1)c1nnc(C)n1-2

>  <metric-name>
DC50

>  <val>
≥ 501 nM

$$$$
>  <compound-string>
Cc1sc2c(c1C)C(c1ccc(Cl)cc1)=N[C@@H](CC(=O)NCCOCCNC(=O)c1cc(SC(=O)c3ccccc3)c3ncc(C(=O)NCCc4nccs4)cc3c1)c1nnc(C)n1-2

>  <metric-name>
DC50

>  <val>
51 to 500 nM

$$$$
>  <compound-string>
Cc1sc2c(c1C)C(c1ccc(Cl)cc1)=N[C@@H](CC(=O)NCCCCNC(=O)c1cc(S)c3ncc(C(=O)NCc4ccc(F)cc4)cc3c1)c1nnc(C)n1-2

>  <metric-name>
DC50

>  <val>
≥ 501 nM

$$$$
>  <compound-string>
Cc1sc2c(c1C)C(c1ccc(Cl)cc1)=N[C@@H](CC(=O)NCCOCCNC(=O)c1cc(S)c3ncc(C(=O)NCCc4nccs4)cc3c1)c1nnc(C)n1-2

>  <metric-name>
DC50

>  <val>
≥ 501 nM

$$$$

Next up:
Report DC50 for `Cc1sc2c(c1C)C(c1ccc(Cl)cc1)=N[C@@H](CC(=O)NCCCCNC(=O)c1cc(S)c3ncc(C(=O)NCCc4nccs4)cc3c1)c1nnc(C)n1-2` tested on Brd3 (Homo sapiens, UniProt Q15059).
51 to 500 nM

----------
As shown below, each of these molecules has a reported Abs. T1/2 value.
subject-of-test: Brd4 (L) (Homo sapiens)
Construct: endogenous in cells; host or cells: HEK293 (CRL-1573), HeLa (CCL-2)
protocol-text: Time-dependent BET degradation, immunoblot
Assay type: cell-based
assay-setup: HEK293, Brd4 (L), 1 μM; time to deplete 50% of the protein relative to DMSO
Number first, unit second: that is the form wanted.

Use the examples below as a reference point.
>  <compound-string>
Cc1sc2c(c1C)C(c1ccc(Cl)cc1)=N[C@@H](CC(=O)NCCCCNC(=O)c1cc(S)c3ncc(C(=O)NCCc4nccs4)cc3c1)c1nnc(C)n1-2

>  <Abs. T1/2>
1.2 h

$$$$
>  <compound-string>
Cc1sc2c(c1C)C(c1ccc(Cl)cc1)=N[C@@H](CC(=O)NCCOCCNC(=O)c1cc(S)c3ncc(C(=O)NCCc4nccs4)cc3c1)c1nnc(C)n1-2

>  <Abs. T1/2>
1.7 h

$$$$
>  <compound-string>
Cc1sc2c(c1C)C(c1ccc(Cl)cc1)=N[C@@H](CC(=O)NCCCCNC(=O)c1cc(SC(=O)c3ccccc3)c3ncc(C(=O)NCCc4nccs4)cc3c1)c1nnc(C)n1-2

>  <Abs. T1/2>
1.0 h

$$$$

Next up:
Query: Abs. T1/2; subject: `Cc1sc2c(c1C)C(c1ccc(Cl)cc1)=N[C@@H](CC(=O)NCCOCCNC(=O)c1cc(SC(=O)c3ccccc3)c3ncc(C(=O)NCCc4nccs4)cc3c1)c1nnc(C)n1-2`
1.1 h

----------
subject-of-test: Brd4 (S) (Homo sapiens, UniProt O60885)
Construct: endogenous in cells; host or cells: HEK293 (CRL-1573), HeLa (CCL-2)
protocol-text: Time-dependent BET degradation, immunoblot
Assay type: cell-based
assay-setup: HEK293, Brd4 (S), 1 μM; time to deplete 50% of the protein relative to DMSO
As shown below, each of these molecules has a reported Abs. T1/2 value.
Numbers only here, please. The scale is h.

Use the examples below as a reference point.
>  <compound-string>
Cc1sc2c(c1C)C(c1ccc(Cl)cc1)=N[C@@H](CC(=O)NCCOCCNC(=O)c1cc(SC(=O)c3ccccc3)c3ncc(C(=O)NCCc4nccs4)cc3c1)c1nnc(C)n1-2

>  <Abs. T1/2 / h>
1.2

$$$$
>  <compound-string>
Cc1sc2c(c1C)C(c1ccc(Cl)cc1)=N[C@@H](CC(=O)NCCCCNC(=O)c1cc(S)c3ncc(C(=O)NCCc4nccs4)cc3c1)c1nnc(C)n1-2

>  <Abs. T1/2 / h>
1.9

$$$$
>  <compound-string>
Cc1sc2c(c1C)C(c1ccc(Cl)cc1)=N[C@@H](CC(=O)NCCOCCNC(=O)c1cc(S)c3ncc(C(=O)NCCc4nccs4)cc3c1)c1nnc(C)n1-2

>  <Abs. T1/2 / h>
1.9

$$$$

Report Abs. T1/2 for `Cc1sc2c(c1C)C(c1ccc(Cl)cc1)=N[C@@H](CC(=O)NCCCCNC(=O)c1cc(SC(=O)c3ccccc3)c3ncc(C(=O)NCCc4nccs4)cc3c1)c1nnc(C)n1-2` tested on Brd4 (S) (Homo sapiens, UniProt O60885).
0.6

----------
subject-of-test: Brd4 (S) (Homo sapiens, UniProt O60885)
Construct: endogenous in cells; host or cells: HEK293 (CRL-1573), HeLa (CCL-2)
protocol-text: Concentration-dependent BET degradation, immunoblot
Format: cell-based
assay-setup: HeLa, 4 h, 1 nM-10 μM
As shown below, each of these compounds has a reported Dmax value.

>  <compound>
Cc1sc2c(c1C)C(c1ccc(Cl)cc1)=N[C@@H](CC(=O)NCCOCCNC(=O)c1cc(SC(C)(C)C)c3ncc(C(=O)NCCc4nccs4)cc3c1)c1nnc(C)n1-2 [Example 11JQ17]

>  <subject-of-test>
Brd4 (S) (Homo sapiens, UniProt O60885)

>  <metric-name>
Dmax

>  <val>
≤ 25%

$$$$
>  <compound>
Cc1sc2c(c1C)C(c1ccc(Cl)cc1)=N[C@@H](CC(=O)NCCCCNC(=O)c1cc(S)c3ncc(C(=O)NCc4ccc(F)cc4)cc3c1)c1nnc(C)n1-2 [Example 11JQ12]

>  <subject-of-test>
Brd4 (S) (Homo sapiens, UniProt O60885)

>  <metric-name>
Dmax

>  <val>
≥ 71%

$$$$
>  <compound>
Cc1sc2c(c1C)C(c1ccc(Cl)cc1)=N[C@@H](CC(=O)NCCCCNC(=O)c1cc(S)c3ncc(C(=O)NCCc4nccs4)cc3c1)c1nnc(C)n1-2 [Example 11JQ7]

>  <subject-of-test>
Brd4 (S) (Homo sapiens, UniProt O60885)

>  <metric-name>
Dmax

>  <val>
≥ 71%

$$$$

Query: Dmax; subject: Cc1sc2c(c1C)C(c1ccc(Cl)cc1)=N[C@@H](CC(=O)NCCOCCNC(=O)c1cc(S)c3ncc(C(=O)NCCc4nccs4)cc3c1)c1nnc(C)n1-2 [Example 11JQ1]
≥ 71%

// query: Cc1sc2c(c1C)C(c1ccc(Cl)cc1)=N[C@@H](CC(=O)NCCCCNC(=O)c1cc(SC(=O)c3ccccc3)c3ncc(C(=O)NCCc4nccs4)cc3c1)c1nnc(C)n1-2 [Example 11JQ16]
≥ 71%

// query: Cc1sc2c(c1C)C(c1ccc(Cl)cc1)=N[C@@H](CC(=O)NCCOCCNC(=O)c1cc(SC(=O)c3ccccc3)c3ncc(C(=O)NCCc4nccs4)cc3c1)c1nnc(C)n1-2 [Example 11JQ15]
51 to 70%
